- Procedure details: Average particle size (ζ-Average) and PDI by dynamic light scattering (Zetasizer Nano ZSP)
- Format: physicochemical
- Measurement parameters: F7siRNA-loaded LNP, 50:10:38.5:1.5, N/P ratio 6
Parameter measured: PDI
I'd appreciate a reply containing only the number, no unit.

(Q) Please give measured PDI of the following entry: CCCCCC(CCC)C(=O)OCCCCCCC(O)(CCCCCCOC(=O)C(CCC)CCCCC)CCCCOC(=O)C1CCN(C)CC1 (stereo not shown) [CL15F 7-3]
(A) 0.398

(Q) Please give measured PDI of the following entry: CCCCCCCCCCC(CCCC)C(=O)OCCCCCCC(O)(CCCCCCOC(=O)C(CCCC)CCCCCCCCCC)CCCCOC(=O)C1CCN(C)CC1 (stereo not shown) [CL15F 12-4]
(A) 0.065

(Q) Please give measured PDI of the following entry: CCCCCCCCCCC(CCCCCCCCCC)C(=O)OCCCCCCC(O)(CCCCCCOC(=O)C(CCCCCCCCCC)CCCCCCCCCC)CCCCN(CCC)CCC
(A) 0.015

(Q) Please give measured PDI of the following entry: CCCCCCCCCC(CCCCCCC)C(=O)OCCCCCCC(O)(CCCCCCOC(=O)C(CCCCCCC)CCCCCCCCC)CCCCN(CCC)CCC (stereo not shown)
(A) 0.019

(Q) Please give measured PDI of the following entry: CCCN(CCC)CCCCC(O)(CCCCCCOC(=O)C(CCC(C)CC(C)(C)C)C(C)CC(C)(C)C)CCCCCCOC(=O)C(CCC(C)CC(C)(C)C)C(C)CC(C)(C)C (stereo not shown)
(A) 0.048

(Q) Please give measured PDI of the following entry: CCCCCCCCCC(CCCCCCCCC)C(=O)OCCCCCCC(O)(CCCCCCOC(=O)C(CCCCCCCCC)CCCCCCCCC)CCCCN(CCC)CCC
(A) 0.009

(Q) Please give measured PDI of the following entry: CCCCCCCCCC(CCCCC)C(=O)OCCCCCCC(O)(CCCCCCOC(=O)C(CCCCC)CCCCCCCCC)CCCCN(CCC)CCC (stereo not shown)
(A) 0.012

(Q) Please give measured PDI of the following entry: CCCCCCCC/C=C\CCCCCCCC(=O)OCCCCCCC(O)(CCCCCCOC(=O)CCCCCCC/C=C\CCCCCCCC)CCCCN(CCC)CCC [CL4H6, reference compound]
(A) 0.102

(Q) Please give measured PDI of the following entry: CCCCCCCC(CCCCCCC)C(=O)OCCCCCCC(O)(CCCCCCOC(=O)C(CCCCCCC)CCCCCCC)CCCCN(CCC)CCC
(A) 0.020

(Q) Please give measured PDI of the following entry: CCCCCC(CCCCC)C(=O)OCCCCCCC(O)(CCCCCCOC(=O)C(CCCCC)CCCCC)CCCCN(CCC)CCC
(A) 0.021

(Q) Please give measured PDI of the following entry: CCCCCCCCC(CCCCCC)C(=O)OCCCCCCC(O)(CCCCCCOC(=O)C(CCCCCC)CCCCCCCC)CCCCOC(=O)C1CCN(C)CC1 (stereo not shown)
(A) 0.044

(Q) Please give measured PDI of the following entry: CCCCC(CC)C(=O)OCCCCCCC(O)(CCCCCCOC(=O)C(CC)CCCC)CCCCOC(=O)C1CCN(C)CC1 (stereo not shown) [CL15F 6-2]
(A) 0.534

(Q) Please give measured PDI of the following entry: CCCCCCCCCCC(CCCC)C(=O)OCCCCCCC(O)(CCCCCCOC(=O)C(CCCC)CCCCCCCCCC)CCCCN(CCC)CCC (stereo not shown)
(A) 0.011
